- Tested on: NCI-H460
- testName: NCI tumour cell line growth inhibition, 48 h
The source made the active and inactive calls. No stated cut-off is given here; in the data, active = GI50 up to about 1.1 µM and inactive = higher. Non-standard residues stand in square brackets, D forms with d. Residues, ends and D or L forms follow the SMILES beside them. *: point of attachment. Ac5c = NC1(C(=O)O)CCCC1; Boc = CC(C)(C)OC(=O)*; tBu = CC(C)(C)*
Pick from true (1) = active, false (0) = inactive when you respond.

# example entries with known answers
compound: O=C1OC(C2Cc3ccc4c(c3C2=O)CCCC4)c2ccccc21 (configuration not stated)
classLabel: false (0)
--
compound: CCOP(=O)(Cc1nc(C#N)c(N)o1)OCC
classLabel: false (0)
--
compound: O=C(O)C12CCC(CC1=O)C2 (configuration not stated)
classLabel: false (0)

Please let me know the test result on file for `CC(C)OC(=O)NNc1cc(Cl)ccc1Cl` .
false (0)

// param item: `CCOC(=O)c1cccc([N+](=O)[O-])c1N` ; yields the recorded call
false (0)

Per the assay record, what outcome was assigned to `CC(C)(C)OC(=O)N1CCc2c(n(C/C=C/c3ccccc3)[nH]c2=O)C1` ?
false (0)

Record request — test call for CC1CN=C(N(C)C(=O)Nc2ccc(Cl)c(Cl)c2)S1 (configuration not stated)
false (0)

What did this assay record as the result for `O=C(O)COc1cc(-c2ccccc2)nc2ccc(F)cc12` ?
false (0)

Dear colleague, could you share the recorded outcome for CCCOP1(=O)C=CC(Cl)=C(C)C1 (configuration not stated) when you have a moment?
false (0)

Identify the outcome logged in this assay for the compound shown: `Cc1ccc2c(O)cc(-c3cccc(Cl)c3)nc2n1`
true (1)

Hi team, can someone confirm the assay call for CC(OC(C)(C)C)C(NC(=O)C(CCCCNC(=O)OC(C)(C)C)NC(=O)C(Cc1c[nH]c2ccccc12)NC(=O)C(N)Cc1ccccc1)C(=O)NC(Cc1ccccc1)C(=O)NC1(C(=O)O)CCCC1 (configuration not stated) (H-FWK(Boc)T(tBu)F[Ac5c]-OH; configuration not given here) ?
false (0)

Look up the recorded call for `O=C(CCCN1CCC(Nc2ccccc2)(c2nnnn2C2CCCCC2)CC1)c1ccc(F)cc1` in this test.
false (0)
